Reference for the values: patent US8361988B2

experimentalTarget: Thermotoga maritima thymidine kinase (Thermotoga maritima, UniProt Q9WYN2)
Sequence (Q9WYN2 whole entry): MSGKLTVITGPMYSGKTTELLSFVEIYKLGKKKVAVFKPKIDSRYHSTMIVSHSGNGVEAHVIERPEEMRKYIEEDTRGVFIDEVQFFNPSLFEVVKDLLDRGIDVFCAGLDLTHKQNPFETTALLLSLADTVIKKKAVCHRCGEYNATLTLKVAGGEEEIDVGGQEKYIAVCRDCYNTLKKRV
protocolDetails: Phosphorylation assay (spectrophotometric coupled-enzyme), T. maritima TK
Type: biochemical
conditionParameters: substrate at 100 μM; 37° C.; 1 mM ATP; triplicate
T. maritima TK substrate phosphorylation overview

Please review the entries below; each comes with its answer.
> print(dat)
                                   compound                        experimentaltarget              measvalue
1  Cc1cc(=O)[nH]c(=O)n1[C@H]1CC2(C)C(=O)OC[C@H]2O1 (single isomer, unassigned) [LCB-1020]  Thermotoga maritima thymidine kinase (Thermotoga maritima, UniProt Q9WYN2)   <1 10^−3 μmol/min mg
2  COC(=O)C1(C)C[C@H](n2cc(C)c(=O)[nH]c2=O)O[C@@H]1CO (mixture of isomers) [LCB-1009-2]  Thermotoga maritima thymidine kinase (Thermotoga maritima, UniProt Q9WYN2)  4.9 10^−3 μmol/min mg
3  COC(=O)C1(C)C[C@@H](n2cc(C)c(=O)[nH]c2=O)O[C@@H]1CO (mixture of isomers) [LCB-1001]  Thermotoga maritima thymidine kinase (Thermotoga maritima, UniProt Q9WYN2)   <1 10^−3 μmol/min mg
4  Cc1cc(=O)[nH]c(=O)n1[C@H]1CC(C)(CO)[C@@H](CO)O1 (mixture of isomers) [LCB-1021]  Thermotoga maritima thymidine kinase (Thermotoga maritima, UniProt Q9WYN2)  2.2 10^−3 μmol/min mg
5  Cc1cn([C@H]2C[C@H](O)[C@@H](CO)O2)c(=O)[nH]c1=O [Thymidine, reference compound]  Thermotoga maritima thymidine kinase (Thermotoga maritima, UniProt Q9WYN2)  830 10^−3 μmol/min mg
6  COC(=O)C1(C)C[C@@H](n2ccc(=O)[nH]c2=O)O[C@@H]1CO (mixture of isomers) [LCB-1002]  Thermotoga maritima thymidine kinase (Thermotoga maritima, UniProt Q9WYN2)  2.2 10^−3 μmol/min mg

Challenge: So what's the measured T. maritima TK substrate phosphorylation for this one? CCOC(=O)[C@@H]1O[C@H](n2ccc(=O)[nH]c2=O)CC1(C)C(=O)OCC (stereo partly shown) [LCB-1025]
Response given: <1 10^−3 μmol/min mg

Challenge: // repeat for CCOC(=O)[C@@H]1O[C@H](n2cc(F)c(=O)[nH]c2=O)CC1(C)C(=O)OCC (stereo in doubt) [LCB-1024] and report
Response given: 4.2 10^−3 μmol/min mg

Challenge: // repeat for CC1(CO)C[C@H](n2ccc(=O)[nH]c2=O)O[C@@H]1CO (mixture of isomers) [LCB-1006] and report
Response given: 2.7 10^−3 μmol/min mg

Challenge: // repeat for CC1(CO)C[C@@H](n2ccc(=O)[nH]c2=O)O[C@@H]1CO (mixture of isomers) [LCB-1008] and report
Response given: <1 10^−3 μmol/min mg

Challenge: // repeat for Cc1cn([C@H]2CC(C)(CO)[C@@H](CO)O2)c(=O)[nH]c1=O (mixture of isomers) [LCB-1007] and report
Response given: 2.2 10^−3 μmol/min mg

Challenge: // repeat for COC(=O)C1(C)CC(n2cc(C)c(=O)[nH]c2=O)OC1CO (racemic) [LCB-1010-2] and report
Response given: 5.6 10^−3 μmol/min mg

Challenge: // repeat for Cc1cn([C@H]2CC(C)(CO)[C@@H](CO)O2)c(=O)[nH]c1=O (mixture of isomers) [LCB-1007-2] and report
Response given: 2.2 10^−3 μmol/min mg
